Provenance of the data: ChEMBL document CHEMBL5344477

- Assay remarks: Cmax in Sprague-Dawley rat at 1 mg/kg, iv measured upto 24 hrs by LC-MS/MS analysis
- Format: ADME, organism-based
- Parameters: dose 1 mg/kg, time < 24 hrs, route iv
- Condition: in vivo
Measured property: Cmax (ng/mL)
Provide the reading as a plain figure in ng/mL.

Use these answered entries as a reference point.
molecule=CC(C)n1cnnc1-c1cccc(NC(=O)c2cc3c(cc2F)OCc2cncn2-3)n1 measured_property=Cmax value_reported=793
molecule=O=C(Nc1cccc(-c2nncn2CC2CC2)n1)c1cc2c(cc1F)OCc1cncn1-2 measured_property=Cmax value_reported=804
molecule=CC(C)n1cnnc1-c1cccc(NC(=O)c2cc3c(cc2F)OCC(=O)N3)n1 measured_property=Cmax value_reported=1040
molecule=CC(C)n1cnnc1-c1cccc(NC(=O)c2cc3c(cc2F)CCCC(=O)N3C)n1 measured_property=Cmax value_reported=597
molecule=CC(C)n1cnnc1-c1cccc(NC(=O)c2cc3c(cc2F)CCC(=O)N3C)n1 measured_property=Cmax value_reported=594
molecule="CC(CO)n1cnnc1-c1cccc(NC(=O)c2cc3c(cc2F)CCCC(=O)N3C)n1 (centres undefined)" measured_property=Cmax value_reported=440
molecule=CC(C)n1cnnc1-c1cccc(NC(=O)c2cc3c(cc2F)CCCC(=O)N3)n1 measured_property=Cmax value_reported=1070
molecule="CC(CO)n1cnnc1-c1cccc(NC(=O)c2cc3c(cc2F)CCCC(=O)N3)n1 (centres undefined)" measured_property=Cmax value_reported=262

Query :: Tell me the measured Cmax of `CC(C)n1cnnc1-c1cccc(NC(=O)c2cc3c(cc2F)CCCC(=O)N3C)c1` , please.
Result :: 758

---

- Assay remarks: Metabolic stability in human liver microsomes assessed as clearance at 1 uM measured upto 90 mins by LC-MS/MS analysis
- Type: ADME, Microsome
- Condition: read-out: CLH
Measured property: CLint scaled at 1 µM (mL/min/kg)
Provide the reading as a plain figure in mL/min/kg.

molecule=O=C(Nc1cccc(-c2nncn2C2CC2)n1)c1cc2c(cc1F)OCc1cncn1-2 value_reported=21.7

Query :: Tell me the measured CLint scaled at 1 µM of `O=C(Nc1cccc(-c2nncn2-c2ccccc2)n1)c1cc2c(cc1F)OCc1cncn1-2` , please.
Result :: 26.4

Query :: Tell me the measured CLint scaled at 1 µM of `CN1C(=O)CCCc2cc(F)c(C(=O)Nc3cccc(-c4nncn4C4CC4)n3)cc21` , please.
Result :: 11.1

Query :: Tell me the measured CLint scaled at 1 µM of CC(CO)n1cnnc1-c1cccc(NC(=O)c2cc3c(cc2F)CCCC(=O)N3C)n1 (centres undefined) , please.
Result :: 8.5

Query :: Tell me the measured CLint scaled at 1 µM of `O=C(Nc1cccc(-c2nncn2CC2CC2)n1)c1cc2c(cc1F)OCc1cncn1-2` , please.
Result :: 24.1

Query :: Tell me the measured CLint scaled at 1 µM of `O=C1COc2cc(F)c(C(=O)Nc3cccc(-c4nncn4C4CCCC4)n3)cc2N1` , please.
Result :: 94.3

Query :: Tell me the measured CLint scaled at 1 µM of `O=C1CCCc2cc(F)c(C(=O)Nc3cccc(-c4nncn4C4CC4)n3)cc2N1` , please.
Result :: 2.4

Query :: Tell me the measured CLint scaled at 1 µM of CC(CO)n1cnnc1-c1cccc(NC(=O)c2cc3c(cc2F)OCC(=O)N3)n1 (centres undefined) , please.
Result :: 9.8

---

log10(CLint scaled at 1 µM) listing for selected compounds.
- Assay remarks: Metabolic stability in rat liver microsomes assessed as clearance at 1 uM measured upto 90 mins by LC-MS/MS analysis
- Assay type: ADME, Microsome
- Condition: read-out: CLH
Remember, log10 of CLint scaled at 1 µM, in mL/min/kg.

Query :: Tell me the measured log10(CLint scaled at 1 µM) of `O=C(Nc1cccc(-c2nncn2C2CCCC2)n1)c1cc2c(cc1F)OCc1cncn1-2` , please.
Result :: 2.36

Query :: Tell me the measured log10(CLint scaled at 1 µM) of `CC(C)n1cnnc1-c1cccc(NC(=O)c2cc3c(cc2F)CCCC(=O)N3)n1` , please.
Result :: 0.82

---

- Assay remarks: Half life in Sprague-Dawley rat at 1 mg/kg, iv measured upto 24 hrs by LC-MS/MS analysis
- Format: ADME, organism-based
- Condition: in vivo
Output: class label from half-life. Mapping: LOW (below 40 min), MEDIUM (40 min to below 50 min), HIGH (50 min or more)

Use these answered entries as a reference point.
molecule=CC(C)n1cnnc1-c1cccc(NC(=O)c2cc3c(cc2F)OCc2cncn2-3)c1 answer_label=LOW
molecule=CC(C)n1cnnc1-c1cccc(NC(=O)c2cc3c(cc2F)C(C)(C)CC(=O)N3C)n1 answer_label=HIGH
molecule=CN1C(=O)CCCc2cc(F)c(C(=O)Nc3cccc(-c4nncn4C4CC4)n3)cc21 answer_label=HIGH

Query :: Please indicate the class for CC(CO)n1cnnc1-c1cccc(NC(=O)c2cc3c(cc2F)OCC(=O)N3)n1 (configuration not stated) based on its half-life.
Result :: LOW

Query :: Please indicate the class for `CC(C)n1cnnc1-c1cccc(NC(=O)c2cc3c(cc2F)CCC(=O)N3C)n1` based on its half-life.
Result :: HIGH

---

- Assay remarks: Apparent […] clearance in Sprague-Dawley rat at 1 mg/kg, iv measured upto 24 hrs by LC-MS/MS analysis
- Format: ADME, organism-based
- Condition: in vivo
Measured property: CL/F (mL/min/kg)
Provide the reading as a plain figure in mL/min/kg.

Use these answered entries as a reference point.
molecule=CC(C)n1cnnc1-c1cccc(NC(=O)c2cc3c(cc2F)OCc2cncn2-3)n1 measured_property=CL/F units_of_measure=mL/min/kg value_reported=31.3
molecule="CC(CO)n1cnnc1-c1cccc(NC(=O)c2cc3c(cc2F)CCCC(=O)N3C)n1 (stereo not drawn)" measured_property=CL/F units_of_measure=mL/min/kg value_reported=76.7

Query :: Tell me the measured CL/F of CC(CO)n1cnnc1-c1cccc(NC(=O)c2cc3c(cc2F)CCCC(=O)N3)n1 (stereo not drawn) , please.
Result :: 154

---

- Assay remarks: Half life in Sprague-Dawley rat at 5 mg/kg, po measured upto 24 hrs by LC-MS/MS analysis
- Assay type: ADME, organism-based
- Condition: in vivo
Measured property: half-life (h)
Provide the reading as a plain figure in h.

smiles_data=CC(C)n1cnnc1-c1cccc(NC(=O)c2cc3c(cc2F)CCCC(=O)N3C)c1 value_reported=1.44
smiles_data=CC(C)n1cnnc1-c1cccc(NC(=O)c2cc3c(cc2F)CCC(=O)N3)n1 value_reported=1.46

Query :: Tell me the measured half-life of `O=C1COc2cc(F)c(C(=O)Nc3cccc(-c4nncn4-c4ccccc4)n3)cc2N1` , please.
Result :: 2.95

---

- Assay remarks: Volume of distribution at steady state in Sprague-Dawley rat at 1 mg/kg, iv measured upto 24 hrs by LC-MS/MS analysis
- Type: ADME, organism-based
- Condition: in vivo, read-out: Vdss
Measured property: log10(Vd) (log10 of the value in L/kg)
Remember, log10 of Vd, in L/kg.

Use these answered entries as a reference point.
molecule=CC(C)n1cnnc1-c1cccc(NC(=O)c2cc3c(cc2F)OCc2cncn2-3)n1 value_reported=0.09
molecule=CC(C)n1cnnc1-c1cccc(NC(=O)c2cc3c(cc2F)CCCC(=O)N3C)c1 value_reported=0.16
molecule=O=C(Nc1cccc(-c2nncn2CC2CC2)n1)c1cc2c(cc1F)OCc1cncn1-2 value_reported=0.05

Query :: Tell me the measured log10(Vd) of `CC(C)n1cnnc1-c1cccc(NC(=O)c2cc3c(cc2F)CCCC(=O)N3)c1` , please.
Result :: 0.34

Query :: Tell me the measured log10(Vd) of `CC(C)n1cnnc1-c1cccc(NC(=O)c2cc3c(cc2F)CCCC(=O)N3C)n1` , please.
Result :: 0.19

Query :: Tell me the measured log10(Vd) of `Cc1cc(F)c(C(=O)Nc2cccc(-c3nncn3C(C)C)n2)cc1-n1cnc(C2CC2)c1` , please.
Result :: -0.57

Query :: Tell me the measured log10(Vd) of `CC(C)n1cnnc1-c1cccc(NC(=O)c2cc3c(cc2F)CCC(=O)N3C)n1` , please.
Result :: 0.12

Query :: Tell me the measured log10(Vd) of CC(CO)n1cnnc1-c1cccc(NC(=O)c2cc3c(cc2F)CCCC(=O)N3)n1 (stereo not drawn) , please.
Result :: 0.48

Query :: Tell me the measured log10(Vd) of `CC(C)n1cnnc1-c1cccc(NC(=O)c2cc3c(cc2F)CCC(=O)N3)c1` , please.
Result :: 0.53

Query :: Tell me the measured log10(Vd) of `O=C1COc2cc(F)c(C(=O)Nc3cccc(-c4nncn4-c4ccccc4)n3)cc2N1` , please.
Result :: -0.17

Query :: Tell me the measured log10(Vd) of `O=C(Nc1cccc(-c2nncn2CC2CC2)c1)c1cc2c(cc1F)OCc1cncn1-2` , please.
Result :: 0.03

Query :: Tell me the measured log10(Vd) of CC(CO)n1cnnc1-c1cccc(NC(=O)c2cc3c(cc2F)OCC(=O)N3)n1 (stereo not drawn) , please.
Result :: 0.10

Query :: Tell me the measured log10(Vd) of `CC(C)n1cnnc1-c1cccc(NC(=O)c2cc3c(cc2F)CCCC(=O)N3)n1` , please.
Result :: 0.03
